# System: Vaccinia virus Lister strain
# Method notes: organism not typed
# Format: cell-based
# Run parameters: 48 h, read-out: Inhibitory Concentration (IC50) which inhibited by 50% the denaturation of Virus No. 4 infested HeLa-Y cell
Property name: IC50

Illustrative cases are given below, each with its answer.
>>> result("CCN1C(=O)N(CC)C2C(C)(C)C(C)(C)C2(F)C1=O (stereo not shown)")
"> 250 µg/mL"
>>> result("CCN1C(=O)NC(=O)C2(F)C1C(C)(C)C2(C)C (stereo not shown)")
"> 250 µg/mL"

## Input Tell me the measured IC50 of CCN1C(=O)[C@@H]2[C@H](N(CC)C1=O)C(C)(C)C2(C)C (relative stereo) , please.
## Output > 250 µg/mL

## Input Field request: IC50 | item: CC1(C)O[C@@H]2[C@H](O1)[C@@H](CO)O[C@H]2N1C(=O)NC(=O)C2C1C(C)(C)C2(C)C (stereo partly shown)
## Output > 1000 µg/mL

## Input # get_value(readout='IC50', item= CN1C(=O)NC2C(C)(C)C(C)(C)C2(F)C1=O (stereo not shown) )
## Output > 125 µg/mL

## Input Reported IC50, molecule CC1(C)C2N(Cc3ccccc3)C(=O)N(Cc3ccccc3)C(=O)C2(F)C1(C)C (stereo not shown) : ____
## Output > 25 µg/mL

## Input Please report the recorded IC50 for CN1C(=O)[C@@H]2[C@H](N(C)C1=O)C(C)(C)C2(C)C (relative stereo) .
## Output > 250 µg/mL
